Cited source for all entries: PubChem BioAssay (Tox21)

Molecular target: Peroxisome proliferator-activated receptor delta (Homo sapiens) (UniProt Q03181)
Sequence (Q03181 whole entry, looked up): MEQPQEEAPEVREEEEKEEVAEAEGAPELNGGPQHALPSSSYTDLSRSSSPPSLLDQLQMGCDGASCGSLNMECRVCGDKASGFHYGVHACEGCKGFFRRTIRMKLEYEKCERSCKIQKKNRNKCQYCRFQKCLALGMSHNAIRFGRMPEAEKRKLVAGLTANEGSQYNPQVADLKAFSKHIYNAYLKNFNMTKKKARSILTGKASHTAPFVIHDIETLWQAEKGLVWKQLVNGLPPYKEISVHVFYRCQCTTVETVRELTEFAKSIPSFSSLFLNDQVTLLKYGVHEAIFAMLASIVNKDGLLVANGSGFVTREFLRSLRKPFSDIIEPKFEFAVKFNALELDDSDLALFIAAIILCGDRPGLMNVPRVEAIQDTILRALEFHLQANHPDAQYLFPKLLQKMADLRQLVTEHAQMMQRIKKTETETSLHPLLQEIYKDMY
Assay: qHTS assay to identify small molecule antagonists of the peroxisome proliferator-activated receptor delta (PPARd) signaling pathway (AID 743215);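 note: cells stimulated with agonist L165041 at 300 nM final during compound exposure; % is set by controls: 0 for no effect and ±100 for the full control effect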
Details: HEK293H PPARd-UAS-bla, beta-lactamase FRET ratio, antagonist, 17 h; series mostly up to 62 µM
Results filed as inconclusive are left out. Calls of active or inactive are those of the source. Calls come from the whole dose curve; as a rule, active = well fitted inhibition curve with a large enough effect in the signal ratio in the repeat runs (not every such curve was filed as active); inconclusive = weak or mixed curves, or effect the other way; inactive = no such curve, though single readings can be large or run the other way; the % refers to the signal ratio.
quantity_measured: outcome

INSERT INTO measurements (molecule, readout_value) VALUES
  ('OP(O)c1ccccc1', 'inactive'),
  ('CC(C)(N)Cc1ccccc1Cl', 'inactive'),
  ('CCCCCCCCSC(=O)Oc1cc(Cl)nnc1-c1ccccc1', 'inactive'),
  ('CS(=O)(=O)c1ccc(C(=O)C2C(=O)CCCC2=O)c(Cl)c1COCC(F)(F)F', 'inactive');

Data point: CCOC(=O)NC(C)(C)Cc1ccc(Cl)cc1 ; outcome = inactive

For CCOC(=O)CC(SP(=S)(OC)OC)C(=O)OCC (stereo unspecified) the molecule record lists outcome as inactive

* * *

Biological target: Estrogen receptor (Homo sapiens)
Assay: qHTS assay to identify small molecule agonists of the estrogen receptor alpha (ER-alpha) signaling pathway (AID 743075);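 note: HEK293 GripTite cells with ER-alpha and UAS-driven beta-lactamase reporter; % is set by controls: 0 for no effect and ±100 for the full control effect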
Settings: HEK293 ER-alpha-UAS-bla, beta-lactamase FRET ratio, 18 h; series mostly up to 70.1 µM
Inconclusive results are not listed. The source made the active and inactive calls. Calls come from the whole dose curve.
quantity_measured: activation

For orientation, consider the following solved cases.
INSERT INTO assay_data (molecule, readout_value) VALUES
  ('Cn1c(CCCC(=O)O)nc2cc(N(CCCl)CCCl)ccc21', 'inactive'),
  ('C/C(=N\NC(=O)Nc1cc(F)cc(F)c1)c1ncccc1C(=O)O', 'inactive'),
  ('CC1N=C(N)OC1c1ccccc1 (centres undefined)', 'inactive'),
  ('O=P(O)(O)CN(CP(=O)(O)O)CP(=O)(O)O', 'inactive'),
  ('CC[C@H](O)C(C[C@H](C)N(C)C)(c1ccccc1)c1ccccc1', 'inactive'),
  ('CCC1(CC)C(=O)C=CNC1=O', 'inactive');

Measured on Estrogen receptor (Homo sapiens), O=CCCl has a documented activation of inactive

Entry COc1cc(CC(C)N)cc(OC)c1OC (centres undefined) under Estrogen receptor (Homo sapiens) had activation of inactive

Field activation (Estrogen receptor (Homo sapiens)), entry CCOC(=O)Nc1cccc(OC(=O)Nc2ccccc2)c1 : inactive

The reported Estrogen receptor (Homo sapiens) activation of NNC(N)=O is inactive

# value of activation, Estrogen receptor (Homo sapiens), item COc1ccc(C=O)cc1O = inactive

Tested system Estrogen receptor (Homo sapiens); activation recorded for CCOP(=S)(OCC)SCCl was inactive

Tested system Estrogen receptor (Homo sapiens); activation recorded for NC(=O)CS(=O)C(c1ccccc1)c1ccccc1 (centres undefined) was inactive

Item CC(O)CCl (centres undefined) ; assay system Estrogen receptor (Homo sapiens); activation reported as inactive

Estrogen receptor (Homo sapiens) data for COP(=O)(OC)O/C(C)=C/C(=O)N(C)C ; its activation: inactive

activation of c1cncc([C@@H]2CCCCN2)c1 , assay on Estrogen receptor (Homo sapiens), is inactive

Summary: Clc1cc2c(cc1Cl)Oc1cc(Cl)c(Cl)cc1O2 , Estrogen receptor (Homo sapiens), activation = -4.62% [at 0.274 µM] (inactive)

Item: COc1ccccc1OC | System: Estrogen receptor (Homo sapiens) | activation: inactive

Query CC(C)(C)c1cc(O)ccc1O on Estrogen receptor (Homo sapiens); activation returned: inactive

Value sought: activation, system Estrogen receptor (Homo sapiens), item CNC(=O)O/N=C(/CSC)C(C)(C)C . Result: inactive
